# tested on: UniProt Q9NRA2
# procedure summary: Inhibition of human recombinant-Sialin expressed in HEK293 cells assessed as reduction in [3H]Neu5Ac uptake at 30 to 300 uM incubated for 15 mins by liquid scintillation counting method
# Type: cell-based
Active and inactive are the calls of the source. No cut-off for these calls is given here.
quantity: inhibition

molecule=COc1ccc2c(CSC[C@H](NC(=O)OCC3c4ccccc4-c4ccccc43)C(=O)O)cc(=O)oc2c1 recorded_result="Dose-dependent effect"
molecule=Cc1cc(C)cc(C(=O)N(C)[C@H](Cc2ccc(-c3ccccc3)cc2)C(=O)N[C@@H](Cc2c[nH]c3ccccc23)C(=O)O)c1 recorded_result=Active
molecule=O=C(O)CN(CC(=O)O)c1ccccc1OCCOc1ccccc1N(CC(=O)O)CC(=O)O recorded_result=Active
molecule=O=C(O)CN(CC(=O)O)Cc1cc2c(cc1O)Oc1cc(O)c(CN(CC(=O)O)CC(=O)O)cc1C21OC(=O)c2ccccc21 recorded_result=Active
molecule=COC(=O)CC[C@H](NC(=O)OCC1c2ccccc2-c2ccccc21)C(=O)O recorded_result="Dose-dependent effect"
molecule=O=C(N[C@@H](CSCc1cc(=O)oc2cc(O)c(Cl)cc12)C(=O)O)OCC1c2ccccc2-c2ccccc21 recorded_result="Dose-dependent effect"
molecule=O=C(O)[C@@H]1OCCOCCO[C@@H](C(=O)O)[C@H](C(=O)O)OCCOCCO[C@H]1C(=O)O recorded_result=Active
molecule="CC(=O)N[C@H]1[C@H]([C@H](O)[C@H](O)CO)OC(O)(C(=O)O)C[C@@H]1O (stereo partly drawn)" recorded_result=Active
molecule=CN(Cc1cnc2nc(N)nc(N)c2n1)c1ccc(C(=O)N[C@@H](CCC(=O)O)C(=O)O)cc1 recorded_result=Active
molecule=CC(C)(C)OC(=O)NCc1ccc(C[C@@H](NC(=O)OCC2c3ccccc3-c3ccccc32)C(=O)O)cc1 recorded_result=Active
molecule=CC(C)C[C@H](NC(=O)OCC1c2ccccc2-c2ccccc21)C(=O)O recorded_result="Dose-dependent effect"
molecule=O=C(NCCCC[C@H](NC(=O)OCC1c2ccccc2-c2ccccc21)C(=O)O)OCc1ccccc1 recorded_result=Active
molecule=O=C(N[C@@H](CSCc1cc(=O)oc2cc(O)ccc12)C(=O)O)OCC1c2ccccc2-c2ccccc21 recorded_result="Dose-dependent effect"

====

# tested on: Sialin (Homo sapiens) (UniProt Q9NRA2)
# Sequence (Q9NRA2 whole entry): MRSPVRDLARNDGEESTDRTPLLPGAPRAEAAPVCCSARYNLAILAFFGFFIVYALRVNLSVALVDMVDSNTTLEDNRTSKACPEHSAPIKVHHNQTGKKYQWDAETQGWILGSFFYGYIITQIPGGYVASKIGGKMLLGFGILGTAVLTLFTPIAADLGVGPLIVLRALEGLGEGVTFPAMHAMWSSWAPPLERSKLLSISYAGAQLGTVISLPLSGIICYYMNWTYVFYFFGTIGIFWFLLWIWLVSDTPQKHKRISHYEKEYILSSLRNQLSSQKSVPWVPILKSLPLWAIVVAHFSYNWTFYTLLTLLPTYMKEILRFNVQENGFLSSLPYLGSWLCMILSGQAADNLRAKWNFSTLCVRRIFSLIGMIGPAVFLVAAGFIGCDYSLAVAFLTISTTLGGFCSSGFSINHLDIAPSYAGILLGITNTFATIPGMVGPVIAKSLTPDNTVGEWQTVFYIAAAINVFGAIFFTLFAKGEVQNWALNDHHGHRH
# procedure summary: Inhibition of human recombinant-Sialin expressed in HEK293 cells assessed as reduction in [3H]Neu5Ac uptake at 30 uM incubated for 15 mins by liquid scintillation counting method
# Format: cell-based
Active and inactive are the calls of the source. The calls are words filed in the database; no cut-off is given here.
Classes used: 1 for active, 0 for inactive

compound_structure=CC(C)(C)Oc1ccc(C[C@H](NC(=O)OCC2c3ccccc3-c3ccccc32)C(=O)O)cc1 category=1
compound_structure=O=C(N[C@@H](CSCc1ccccc1)C(=O)O)OCC1c2ccccc2-c2ccccc21 category=0
compound_structure=COc1ccc(CSC[C@H](NC(=O)OCC2c3ccccc3-c3ccccc32)C(=O)O)cc1 category=1
compound_structure=O=C(Cc1cc(=O)oc2cc(O)ccc12)N[C@@H](CCCCNC(=O)OCc1ccccc1)C(=O)O category=1
compound_structure=O=C(N[C@@H](CS)C(=O)O)OCC1c2ccccc2-c2ccccc21 category=1
compound_structure=CC(C)(C)OC(=O)C[C@H](NC(=O)OCC1c2ccccc2-c2ccccc21)C(=O)O category=1
compound_structure=CC(C)C[C@H](NC(=O)OCC1c2ccccc2-c2ccccc21)C(=O)O category=1
compound_structure=CC(C)(C)SC[C@H](NC(=O)OCC1c2ccccc2-c2ccccc21)C(=O)O category=1
compound_structure=COc1ccc2c(CSC[C@H](NC(=O)OCC3c4ccccc4-c4ccccc43)C(=O)O)cc(=O)oc2c1 category=1
compound_structure=COC(=O)CC[C@H](NC(=O)OCC1c2ccccc2-c2ccccc21)C(=O)O category=1
compound_structure=CC[C@H](C)[C@H](NC(=O)OCC1c2ccccc2-c2ccccc21)C(=O)O category=1
